Data origin, for the record: patent US20160002357A1

Study Target: T1, P-cadherin-ECD1-3-Fc protein (human P-cadherin-Fc) (human, UniProt P22223 108-440)
T1 construct: Construct was expressed with signal peptide and pro-peptide (PACE co-transfected to process the propeptide); not shown: hinge and CH2 and CH3 domains of human IgG1
T1 sequence (P22223 108-440): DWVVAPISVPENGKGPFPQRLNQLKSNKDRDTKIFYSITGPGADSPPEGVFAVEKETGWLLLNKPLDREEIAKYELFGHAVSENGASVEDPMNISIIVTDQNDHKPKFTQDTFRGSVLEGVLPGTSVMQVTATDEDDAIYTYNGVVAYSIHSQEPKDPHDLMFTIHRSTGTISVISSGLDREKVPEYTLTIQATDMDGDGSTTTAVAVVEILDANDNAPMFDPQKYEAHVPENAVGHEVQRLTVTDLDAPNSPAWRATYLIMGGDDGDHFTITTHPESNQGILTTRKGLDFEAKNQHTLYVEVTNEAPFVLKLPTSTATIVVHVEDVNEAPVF
Test Details: phage scFv ELISA, coated P-cadherin-ECD1-3-Fc
Known Z Score of a selection of binders
Just the number, please.

Sample answers from the record:
| Binder | Z Score |
| --- | --- |
| anti-P-cadherin scFv 153 alanine-mutant H1.10-Ala (scFv, V domains shown, scFv on phage) VH: EVQLVQSGAEVKKPGASVKVSCKASGYTFTSYGIAWVRQAPGQGLEWMGWISAYNGNTNYAQKLQGRVTMTTDTSTSTAYMELRSLRSDDTAVYYCATIDTANAFGIWGQGTMVTVSS VL: QSVLTQPPSVSAAPGQKVTISCSGSSSNIGNNYVSWYQQLPGTAPKLLIYDNNKRPSGIPDRFSGSKSGTSATLGITGLQTGDEADYYCGTWDSSLSGVVFGGGTKLTVL | 1.3 |
| anti-P-cadherin scFv 153 alanine-mutant H1.9-Ala (scFv, V domains shown, scFv on phage) VH: EVQLVQSGAEVKKPGASVKVSCKASGYTFTSYGASWVRQAPGQGLEWMGWISAYNGNTNYAQKLQGRVTMTTDTSTSTAYMELRSLRSDDTAVYYCATIDTANAFGIWGQGTMVTVSS VL: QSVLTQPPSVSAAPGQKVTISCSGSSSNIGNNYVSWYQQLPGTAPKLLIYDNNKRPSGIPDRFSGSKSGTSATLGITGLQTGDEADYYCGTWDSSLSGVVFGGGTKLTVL | 1.4 |

Now for a further binder.
For record anti-P-cadherin scFv 153 alanine-mutant H3.7-Ala (scFv, V domains shown, scFv on phage) VH: EVQLVQSGAEVKKPGASVKVSCKASGYTFTSYGISWVRQAPGQGLEWMGWISAYNGNTNYAQKLQGRVTMTTDTSTSTAYMELRSLRSDDTAVYYCATIDTANAAGIWGQGTMVTVSS VL: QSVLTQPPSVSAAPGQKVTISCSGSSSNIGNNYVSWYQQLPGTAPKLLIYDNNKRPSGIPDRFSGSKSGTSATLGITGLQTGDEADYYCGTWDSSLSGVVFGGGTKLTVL the listed Z Score is -1.6
